Hello, the source for this data is ChEMBL document CHEMBL1201862, in case you need it.

target_or_system: Kappa-type opioid receptor (Homo sapiens, UniProt P41145)
Sequence (P41145 whole entry): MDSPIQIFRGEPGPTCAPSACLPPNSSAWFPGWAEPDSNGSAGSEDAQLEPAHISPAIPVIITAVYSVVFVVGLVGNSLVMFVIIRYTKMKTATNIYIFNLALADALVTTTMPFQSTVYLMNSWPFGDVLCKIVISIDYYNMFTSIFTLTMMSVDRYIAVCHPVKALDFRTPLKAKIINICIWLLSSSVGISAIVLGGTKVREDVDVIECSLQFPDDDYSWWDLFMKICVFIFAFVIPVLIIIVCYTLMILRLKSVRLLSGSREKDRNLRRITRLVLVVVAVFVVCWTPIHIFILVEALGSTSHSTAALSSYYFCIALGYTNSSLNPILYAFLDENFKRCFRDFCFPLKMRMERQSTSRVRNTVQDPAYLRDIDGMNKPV
Assay type: functional
readout_label: EC50 (nM)
Field: numeric (nM). Do not append units.

Look up EC50 for this compound: Cc1cccc(C)c1NC(=O)C1(N(Cc2ccco2)C(=O)c2ccccn2)CCCC1
1940

====

Reported EC50 by item:
procedure_details: Luminescence Cell-Based Dose Confirmation HTS to Identify Activators of 5'UTR Stem-Loop Driven Alpha-Synuclein mRNA Translation in H4 Neuroglioblastoma Cells. [Related pubchem assays: 1829 (Project Summary), 1814 (Primary HTS)]
Assay type: functional
Activity calls are given as the source filed them. No stated cut-off is given here; in the data, actives have a measured EC50 and inactives only a lower limit.

Look up EC50 for this molecule: O=C(c1ccccn1)c1cc2ccccc2n1S(=O)(=O)c1ccccc1
20.5 µM (active)

Look up EC50 for this molecule: CC(=O)c1ccc(NC(=O)c2ccc([N+](=O)[O-])o2)cc1
> 120 µM (not active)

Look up EC50 for this molecule: Cc1ccc(Nc2nc(Nc3ccc(C)cc3)nc(SC3=NCCS3)n2)cc1
> 120 µM (not active)

Look up EC50 for this molecule: Cc1ccc(N2CCN(C(=O)c3cn(CC4CCCCC4)nn3)C(C)C2)cc1 (stereo unspecified)
2.49 µM (active)

Look up EC50 for this molecule: O=C(Nc1ccccc1O)c1ccc(NC(=O)C2CC2)cc1
10.5 µM (active)

Look up EC50 for this molecule: C/C(=N\NC(=O)CSc1[nH]c(C)nc1[N+](=O)[O-])c1ccc(F)cc1
15 µM (active)
